Attribution: patent US20230414780A1

# measured_target: T1, mouse transferrin receptor (mTfR) fused to EGFP, on CHO cells (mouse, UniProt Q62351 1-763)
# T1 construct: whole, on cells; also called mouse TfR; CHO-mTfR-EGFP; not shown: EGFP
# T1 sequence (Q62351 whole entry, the tested form may be a part): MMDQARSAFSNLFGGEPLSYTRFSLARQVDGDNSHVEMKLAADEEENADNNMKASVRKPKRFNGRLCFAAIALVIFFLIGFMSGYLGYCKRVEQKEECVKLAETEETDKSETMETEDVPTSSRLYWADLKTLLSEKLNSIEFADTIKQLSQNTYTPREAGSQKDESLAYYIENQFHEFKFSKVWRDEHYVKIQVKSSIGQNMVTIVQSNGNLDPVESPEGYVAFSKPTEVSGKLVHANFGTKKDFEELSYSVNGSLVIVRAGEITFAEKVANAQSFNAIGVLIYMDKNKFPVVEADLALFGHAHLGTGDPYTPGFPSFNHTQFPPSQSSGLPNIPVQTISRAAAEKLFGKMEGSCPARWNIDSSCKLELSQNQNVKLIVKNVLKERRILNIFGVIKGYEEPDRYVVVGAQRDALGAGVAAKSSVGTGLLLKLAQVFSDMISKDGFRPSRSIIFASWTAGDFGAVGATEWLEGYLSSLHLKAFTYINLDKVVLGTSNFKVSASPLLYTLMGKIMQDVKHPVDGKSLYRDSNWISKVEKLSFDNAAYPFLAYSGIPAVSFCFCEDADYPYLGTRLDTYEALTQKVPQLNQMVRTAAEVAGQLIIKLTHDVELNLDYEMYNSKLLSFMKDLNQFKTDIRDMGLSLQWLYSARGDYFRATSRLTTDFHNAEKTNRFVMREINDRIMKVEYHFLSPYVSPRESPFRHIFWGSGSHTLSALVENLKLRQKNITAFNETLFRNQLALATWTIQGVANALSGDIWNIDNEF
# assay_overview: apparent Kd, flow cytometry, CHO cells
# Procedure: The binding properties of VHHs with affinity for the TfR from different species (i.e., human (h), mouse (m) and rhesus monkey (rh)) were tested using flow cytometry, and apparent affinities (Kd app) were determined. All experiments were performed in 96 well plates using 2×10⁵ cells/well, at 4° C. with shaking. […] Fluorescence levels were assessed using an Attune NxT flow cytometer (Thermo Fisher Scientific). […]
reported_metric: pKd
Just the number, please; pKd means minus log10 of the concentration in mol/L.

*Q* Let me know recorded pKd for C5^h8 (VHH) VHH: EVQLVESGGGVVQPGGSLRLSCAASGTDFSINFIRWVRQAPGKGLEWVAGFTATGNTNYADSVKGRFTISRDNTKNTLYLQIDSLRPEDTAVYYCYMLDKWGQGTQVTVSS , thanks.
*A* 6.18
